procedure-details: Body weight / toxicity of a single intraperitoneal injection in HCT-116 colon tumor-bearing nude mice
measurement-parameters: Day 30; single IP injection (QD×1); D1 and D2 400 mg/kg, D3 350 mg/kg, D4 300 mg/kg; Mean±SEM
I'd appreciate it if you could supply Average weight of the animals values for the items below.
One number for each entry, in g.

Solved cases below.
CCCCOC(=O)Nc1ccn(C2OC(COC(=O)CCC(=O)OC[C@H]3O[C@@H](n4ccc(NC(=O)OCc5ccccc5)nc4=O)C(F)(F)[C@@H]3O)C(O)C2(F)F)c(=O)n1 (stereo in doubt): 22.03
O=C(CCCC(=O)OC[C@H]1O[C@@H](n2ccc(NC(=O)OCc3ccccc3)nc2=O)C(F)(F)[C@@H]1O)OC[C@H]1O[C@@H](n2ccc(NC(=O)OCc3ccccc3)nc2=O)C(F)(F)[C@@H]1O: 22.90
CCCCOC(=O)Nc1ccn(C2OC(COC(=O)CCCC(=O)OC[C@H]3O[C@@H](n4ccc(NC(=O)OCCCC)nc4=O)C(F)(F)[C@@H]3OC(=O)OCCCC)C(OC(=O)OCCCC)C2(F)F)c(=O)n1 (stereo in doubt) [Compound D1]: 23.60

Now turn to the next molecule.
Could you please provide reported Average weight of the animals for CCCCOC(=O)Nc1ccn([C@H]2O[C@@H](COC(=O)CCC(=O)OC[C@H]3O[C@@H](n4ccc(NC(=O)OCCCC)nc4=O)C(F)(F)[C@@H]3O)[C@H](O)C2(F)F)c(=O)n1 (stereo in doubt) [Compound D2] ? Thanks!
20.33

----------
procedure-details: Body weight / toxicity of a single intraperitoneal injection in HCT-116 colon tumor-bearing nude mice
measurement-parameters: Day 2; single IP injection (QD×1); D1 and D2 400 mg/kg, D3 350 mg/kg, D4 300 mg/kg
Would you kindly list Average rate of weight change of the animals for each of these molecules?

CCCCOC(=O)Nc1ccn([C@H]2O[C@@H](COC(=O)CCC(=O)OC[C@H]3O[C@@H](n4ccc(NC(=O)OCCCC)nc4=O)C(F)(F)[C@@H]3O)[C@H](O)C2(F)F)c(=O)n1 (stereo in doubt) [Compound D2]: −8.54 ± 1.31 %

Could you tell me Average rate of weight change of the animals for each of these molecules? They are listed below.
1. CCCCOC(=O)Nc1ccn(C2OC(COC(=O)CCCC(=O)OC[C@H]3O[C@@H](n4ccc(NC(=O)OCCCC)nc4=O)C(F)(F)[C@@H]3OC(=O)OCCCC)C(OC(=O)OCCCC)C2(F)F)c(=O)n1 (stereo in doubt) [Compound D1]
2. O=C(CCCC(=O)OC[C@H]1O[C@@H](n2ccc(NC(=O)OCc3ccccc3)nc2=O)C(F)(F)[C@@H]1O)OC[C@H]1O[C@@H](n2ccc(NC(=O)OCc3ccccc3)nc2=O)C(F)(F)[C@@H]1O
3. CCCCOC(=O)Nc1ccn(C2OC(COC(=O)CCC(=O)OC[C@H]3O[C@@H](n4ccc(NC(=O)OCc5ccccc5)nc4=O)C(F)(F)[C@@H]3O)C(O)C2(F)F)c(=O)n1 (stereo in doubt)

1: −12.18 ± 2.63 %; 2: −11.25 ± 0.96 %; 3: −8.18 ± 1.56 %

----------
Would you kindly list Relative tumor proliferation rate (T/C %) for each of these compounds?
Tested on: HCT-116 human colon cancer xenografts
procedure-details: Tumor growth inhibition of HCT-116 human colon cancer xenografts in nude mice
Assay type: in vivo, Balb/c nude mice
measurement-parameters: Day 7; single IP injection (QD×1); D1 and D2 400 mg/kg, D3 350 mg/kg, D4 300 mg/kg
One number for each entry, in %.

# annotated cases, reported Relative tumor proliferation rate (T/C %) shown
CCCCOC(=O)Nc1ccn([C@H]2O[C@@H](COC(=O)CCC(=O)OC[C@H]3O[C@@H](n4ccc(NC(=O)OCCCC)nc4=O)C(F)(F)[C@@H]3O)[C@H](O)C2(F)F)c(=O)n1 (stereo in doubt) [Compound D2]: 16.63
CCCCOC(=O)Nc1ccn(C2OC(COC(=O)CCCC(=O)OC[C@H]3O[C@@H](n4ccc(NC(=O)OCCCC)nc4=O)C(F)(F)[C@@H]3OC(=O)OCCCC)C(OC(=O)OCCCC)C2(F)F)c(=O)n1 (stereo in doubt) [Compound D1]: 28.36
O=C(CCCC(=O)OC[C@H]1O[C@@H](n2ccc(NC(=O)OCc3ccccc3)nc2=O)C(F)(F)[C@@H]1O)OC[C@H]1O[C@@H](n2ccc(NC(=O)OCc3ccccc3)nc2=O)C(F)(F)[C@@H]1O: 6.76

Let us move to another entry and its Relative tumor proliferation rate (T/C %).
Answer with the recorded Relative tumor proliferation rate (T/C %) of CCCCOC(=O)Nc1ccn(C2OC(COC(=O)CCC(=O)OC[C@H]3O[C@@H](n4ccc(NC(=O)OCc5ccccc5)nc4=O)C(F)(F)[C@@H]3O)C(O)C2(F)F)c(=O)n1 (stereo in doubt) only.
31.86

----------
Tested on: HCT-116 human colon cancer xenografts
procedure-details: Tumor growth inhibition of HCT-116 human colon cancer xenografts in nude mice
Format: in vivo, Balb/c nude mice
measurement-parameters: Day 25; single IP injection (QD×1); D1 and D2 400 mg/kg, D3 350 mg/kg, D4 300 mg/kg
Can you tell me Relative tumor volume (RTV) for the items I'm about to list?
Give bare numbers.

CCCCOC(=O)Nc1ccn(C2OC(COC(=O)CCC(=O)OC[C@H]3O[C@@H](n4ccc(NC(=O)OCc5ccccc5)nc4=O)C(F)(F)[C@@H]3O)C(O)C2(F)F)c(=O)n1 (stereo in doubt): 11.61
CCCCOC(=O)Nc1ccn([C@H]2O[C@@H](COC(=O)CCC(=O)OC[C@H]3O[C@@H](n4ccc(NC(=O)OCCCC)nc4=O)C(F)(F)[C@@H]3O)[C@H](O)C2(F)F)c(=O)n1 (stereo in doubt) [Compound D2]: 9.62
O=C(CCCC(=O)OC[C@H]1O[C@@H](n2ccc(NC(=O)OCc3ccccc3)nc2=O)C(F)(F)[C@@H]1O)OC[C@H]1O[C@@H](n2ccc(NC(=O)OCc3ccccc3)nc2=O)C(F)(F)[C@@H]1O: 7.22

Now consider the entry below.
Give the measured Relative tumor volume (RTV) for CCCCOC(=O)Nc1ccn(C2OC(COC(=O)CCCC(=O)OC[C@H]3O[C@@H](n4ccc(NC(=O)OCCCC)nc4=O)C(F)(F)[C@@H]3OC(=O)OCCCC)C(OC(=O)OCCCC)C2(F)F)c(=O)n1 (stereo in doubt) [Compound D1]
33.53

----------
procedure-details: Body weight / toxicity of a single intraperitoneal injection in HCT-116 colon tumor-bearing nude mice
measurement-parameters: Day 9; single IP injection (QD×1); D1 and D2 400 mg/kg, D3 350 mg/kg, D4 300 mg/kg; Mean±SEM
measured-property: Average weight of the animals

CCCCOC(=O)Nc1ccn([C@H]2O[C@@H](COC(=O)CCC(=O)OC[C@H]3O[C@@H](n4ccc(NC(=O)OCCCC)nc4=O)C(F)(F)[C@@H]3O)[C@H](O)C2(F)F)c(=O)n1 (stereo in doubt) [Compound D2]: 19.92 ± 0.45 g

List Average weight of the animals for every entry below, keeping the order given.
1. CCCCOC(=O)Nc1ccn(C2OC(COC(=O)CCCC(=O)OC[C@H]3O[C@@H](n4ccc(NC(=O)OCCCC)nc4=O)C(F)(F)[C@@H]3OC(=O)OCCCC)C(OC(=O)OCCCC)C2(F)F)c(=O)n1 (stereo in doubt) [Compound D1]
2. O=C(CCCC(=O)OC[C@H]1O[C@@H](n2ccc(NC(=O)OCc3ccccc3)nc2=O)C(F)(F)[C@@H]1O)OC[C@H]1O[C@@H](n2ccc(NC(=O)OCc3ccccc3)nc2=O)C(F)(F)[C@@H]1O

["20.75 ± 1.05 g", "20.74 ± 0.38 g"]

Read the entry CCCCOC(=O)Nc1ccn(C2OC(COC(=O)CCC(=O)OC[C@H]3O[C@@H](n4ccc(NC(=O)OCc5ccccc5)nc4=O)C(F)(F)[C@@H]3O)C(O)C2(F)F)c(=O)n1 (stereo in doubt) and write its reported Average weight of the animals.
20.73 ± 0.29 g

----------
Give measured Average rate of weight change of the animals for each item. Keep answers brief.
procedure-details: Body weight / toxicity of a single intraperitoneal injection in HCT-116 colon tumor-bearing nude mice
measurement-parameters: Day 23; single IP injection (QD×1); D1 and D2 400 mg/kg, D3 350 mg/kg, D4 300 mg/kg
Give bare numbers, in %.

CCCCOC(=O)Nc1ccn([C@H]2O[C@@H](COC(=O)CCC(=O)OC[C@H]3O[C@@H](n4ccc(NC(=O)OCCCC)nc4=O)C(F)(F)[C@@H]3O)[C@H](O)C2(F)F)c(=O)n1 (stereo in doubt) [Compound D2]: 3.66
O=C(CCCC(=O)OC[C@H]1O[C@@H](n2ccc(NC(=O)OCc3ccccc3)nc2=O)C(F)(F)[C@@H]1O)OC[C@H]1O[C@@H](n2ccc(NC(=O)OCc3ccccc3)nc2=O)C(F)(F)[C@@H]1O: 13.08

Then this compound:
Please look at this compound and report its Average rate of weight change of the animals: CCCCOC(=O)Nc1ccn(C2OC(COC(=O)CCCC(=O)OC[C@H]3O[C@@H](n4ccc(NC(=O)OCCCC)nc4=O)C(F)(F)[C@@H]3OC(=O)OCCCC)C(OC(=O)OCCCC)C2(F)F)c(=O)n1 (stereo in doubt) [Compound D1]
9.32
